test system: dsDNA; experiment: Thermal stabilization of duplex DNA (unknown origin) assessed as melting temperature by FRET melting assay; format: nucleic-acid assay
observationType: ΔTm
Param answer (str): number followed by unit.

Here is how some molecules turned out for ΔTm.
> print(dat)
                                  structure  reported
1  CN(C)CCn1nncc1CNc1c2ccccc2nc2c1oc1ccccc12      1 °C
2      C[n+]1cc2c3ccccc3[nH]c2c2cc(Br)ccc21      2 °C
3  CCN(CC)CCCNc1ccc2c(c1)c1[nH]c3ccccc3c1c[n+]2C      6 °C

Please examine the following record next.
Dear colleague, I am looking for the recorded ΔTm of the following molecule: `CN(C)CCCn1nncc1CNc1c2ccccc2nc2c1oc1ccccc12` 2 °C
